The values you see were collected from patent US11001563B2.

Molecular target: VAP-1/SSAO (Homo sapiens (Human))
Sequence (Q16853 whole entry): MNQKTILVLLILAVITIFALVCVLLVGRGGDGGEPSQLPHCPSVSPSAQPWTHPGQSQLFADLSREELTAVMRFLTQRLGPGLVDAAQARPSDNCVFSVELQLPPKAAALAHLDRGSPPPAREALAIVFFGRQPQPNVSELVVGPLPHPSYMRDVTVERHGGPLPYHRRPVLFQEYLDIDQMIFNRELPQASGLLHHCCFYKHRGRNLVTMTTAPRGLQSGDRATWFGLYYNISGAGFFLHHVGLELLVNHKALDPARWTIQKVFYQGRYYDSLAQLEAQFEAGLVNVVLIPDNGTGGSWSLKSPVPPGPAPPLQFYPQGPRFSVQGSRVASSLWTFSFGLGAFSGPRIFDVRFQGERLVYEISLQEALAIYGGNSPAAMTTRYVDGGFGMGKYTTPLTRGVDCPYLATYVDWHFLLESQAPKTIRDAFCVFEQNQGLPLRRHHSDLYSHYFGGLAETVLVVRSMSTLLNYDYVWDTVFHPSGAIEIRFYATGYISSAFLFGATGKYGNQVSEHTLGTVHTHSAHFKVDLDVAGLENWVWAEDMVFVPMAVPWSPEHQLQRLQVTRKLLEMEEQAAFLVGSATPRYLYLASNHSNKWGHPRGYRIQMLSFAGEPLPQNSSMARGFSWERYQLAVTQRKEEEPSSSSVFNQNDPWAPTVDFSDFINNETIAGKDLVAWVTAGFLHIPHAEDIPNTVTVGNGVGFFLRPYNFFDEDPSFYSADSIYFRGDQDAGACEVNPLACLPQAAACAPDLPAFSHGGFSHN
Assay: VAP-1 cell activity assay (HUVEC or CHO cells transfected with VAP-1/pCDNA (3.1) plasmid, Amplex Red)
Assay type: cell-based
Details: HUVEC or CHO cells transfected with VAP-1 plasmid; read-out: VAP-1/SSAO Cellular Inhibitory Activity IC50
ATTRIBUTE MEASURED: IC50 (nM)
Numbers only, in nM.

Recorded results for 5 compounds are shown here.
- COMPOUND: "NC/C(=C\\F)COc1ccc(-c2nc(C3CC3)n(CCO)n2)cc1 [WX112]"
  TARGET OF ASSAY: "VAP-1/SSAO (Homo sapiens (Human))"
  NUMBER: 0.9
- COMPOUND: "NC/C(=C\\F)COc1ccc(-c2nc(C(F)F)n[nH]2)cc1 [WX088]"
  TARGET OF ASSAY: "VAP-1/SSAO (Homo sapiens (Human))"
  NUMBER: 1.6
- COMPOUND: "CCn1nc(C2(F)CC2)nc1-c1ccc(OC/C(=C/F)CN)cc1 [WX118]"
  TARGET OF ASSAY: "VAP-1/SSAO (Homo sapiens (Human))"
  NUMBER: 0.7
- COMPOUND: "CC(C)n1nc(-c2ccc(OC/C(=C/F)CN)cc2)nc1C1CC1 [WX091]"
  TARGET OF ASSAY: "VAP-1/SSAO (Homo sapiens (Human))"
  NUMBER: 1.3
- COMPOUND: "NC/C(=C\\F)COc1ccc(-c2nc(C3CC3)no2)cc1 [WX016]"
  TARGET OF ASSAY: "VAP-1/SSAO (Homo sapiens (Human))"
  NUMBER: 0.2

Could you tell me which IC50 is on file for Cn1nc(-c2ccc(OC/C(=C/F)CN)cc2)nc1C1CCOCC1 [WX095] ?
0.2
